# measurement target: Alpha-2B adrenergic receptor (Homo sapiens, UniProt P18089)
# Sequence (P18089 whole entry): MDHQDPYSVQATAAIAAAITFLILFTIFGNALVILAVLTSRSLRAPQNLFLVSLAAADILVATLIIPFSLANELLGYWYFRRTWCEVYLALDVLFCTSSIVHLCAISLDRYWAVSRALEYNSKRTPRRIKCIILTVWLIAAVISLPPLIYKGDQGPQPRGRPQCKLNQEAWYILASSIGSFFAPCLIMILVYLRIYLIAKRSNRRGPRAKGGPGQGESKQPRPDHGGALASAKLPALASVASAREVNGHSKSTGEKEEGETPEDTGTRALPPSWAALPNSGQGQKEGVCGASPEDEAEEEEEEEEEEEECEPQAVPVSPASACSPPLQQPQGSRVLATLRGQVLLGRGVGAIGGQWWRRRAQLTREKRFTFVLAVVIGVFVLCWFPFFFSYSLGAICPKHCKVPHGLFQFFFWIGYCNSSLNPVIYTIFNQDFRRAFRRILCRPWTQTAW
# assay details: Binding affinity at human Alpha-2B adrenergic receptor in CHO cells by [3H]rauwolscine (1 nM) displacement.
# Type: cell-based
result type: pIC50
Schema: pIC50 number; meaning minus log10 of the concentration expressed in molar units.

Incoming: Query: pIC50; subject: `Cc1cc(C)n2c(=O)c(CCN3CCc4oc5ccccc5c4C3)c(C)nc2c1`
Outgoing: 8.58

Incoming: Query: pIC50; subject: `COc1cccn2c(=O)c(CCN3CCc4oc5ccccc5c4C3)c(C)nc12`
Outgoing: 8.69

Incoming: Query: pIC50; subject: `Cc1nc2ccccn2c(=O)c1CCN1CCc2sc3ccccc3c2C1`
Outgoing: 7.94

Incoming: Query: pIC50; subject: `Cc1nc2ccccn2c(=O)c1CCN1CCc2oc3c(Cl)cccc3c2C1`
Outgoing: 8.36

Incoming: Query: pIC50; subject: `Cc1nc2ccc(Cl)cn2c(=O)c1CCN1CCc2oc3ccccc3c2C1`
Outgoing: 9.02

Incoming: Query: pIC50; subject: `Cc1ccn2c(=O)c(CCN3CCc4oc5ccccc5c4C3)c(C)nc2c1`
Outgoing: 8.59

Incoming: Query: pIC50; subject: `Cc1ccc2nc(C)c(CCN3CCc4oc5ccccc5c4C3)c(=O)n2c1`
Outgoing: 8.81

// provenance: ChEMBL document CHEMBL1132860
